I'd appreciate it if you could supply MCH values for the items below.
Organism: Rattus norvegicus
METHOD DESCRIPTION: Open TG-GATES - Regimen: Daily Repeat
Assay type: toxicity, organism-based, Sprague-Dawley
Design: regimen Daily Repeat, gender Male, age 6 weeks
EXPERIMENTAL CONTEXT: in vivo, po, 0 mg/kg, […], tissue Blood, route gavage, dose level Control, time 28 day
Give bare numbers, in pg.

Give MCH for each of the items listed below.
1. CCc1oc2ccccc2c1C(=O)c1cc(I)c(O)c(I)c1 [BENZIODARONE]
2. C[C@](N)(Cc1ccc(O)c(O)c1)C(=O)O [METHYLDOPA]
3. CC(C)C(=O)Nc1ccc([N+](=O)[O-])c(C(F)(F)F)c1 [FLUTAMIDE]

19.5
19.5
19.9

---

Organism: Rattus norvegicus
METHOD DESCRIPTION: Open TG-GATES - Regimen: Daily Repeat
Assay type: toxicity, organism-based, Sprague-Dawley
Set-up: regimen Daily Repeat, gender Male, age 6 weeks
EXPERIMENTAL CONTEXT: in vivo, po, 100 mg/kg, […], tissue Blood, route gavage, dose level Low, time 28 day
READOUT TYPE: Plat (x10_4/uL)
One number for each entry, in x10_4/uL.

INSERT INTO results (compound, observed_measurement) VALUES
  ('CCN1CCCC1CNC(=O)c1cc(S(N)(=O)=O)ccc1OC (centres undefined) [SULPIRIDE]', 110.8);

Give Plat for each of the items listed below.
1. O=C(N[C@H](CO)[C@H](O)c1ccc([N+](=O)[O-])cc1)C(Cl)Cl [CHLORAMPHENICOL]
2. O=C(O)c1cccnc1 [NIACIN]
3. CC(C)(S)[C@@H](N)C(=O)O [PENICILLAMINE]

106
102.2
101.2

---

Species: Rattus norvegicus
METHOD DESCRIPTION: Open TG-GATES - Regimen: Daily Repeat
Assay type: toxicity, organism-based, Sprague-Dawley
Set-up: regimen Daily Repeat, gender Male, age 6 weeks
EXPERIMENTAL CONTEXT: in vivo, po, 1000 mg/kg, […], tissue Blood, route gavage, dose level High, time 14 day
I'd appreciate it if you could supply WBC values for the items below.
One number for each entry, in x10_2/uL.

Here's what some known entries look like.
INSERT INTO assay_data (compound, readout_type, observed_measurement) VALUES
  ('CC(C)(S)[C@@H](N)C(=O)O [PENICILLAMINE]', 'WBC', 115.3),
  ('O=C(O)c1cccnc1 [NIACIN]', 'WBC', 131.3),
  ('CCN1CCCC1CNC(=O)c1cc(S(N)(=O)=O)ccc1OC (centres undefined) [SULPIRIDE]', 'WBC', 103.9);

With those in mind, consider the next compound.
Entry O=C(N[C@H](CO)[C@H](O)c1ccc([N+](=O)[O-])cc1)C(Cl)Cl [CHLORAMPHENICOL] has what WBC?
86.3

---

Species: Rattus norvegicus
METHOD DESCRIPTION: Open TG-GATES - Regimen: Single
Assay type: toxicity, organism-based, Sprague-Dawley
Design: regimen Single, gender Male, age 6 weeks
EXPERIMENTAL CONTEXT: in vivo, po, 0 mg/kg, 3 h, tissue Blood, route gavage, dose level Control
READOUT TYPE: PT (s)
Numbers only, in s.

INSERT INTO measurements (compound, observed_measurement) VALUES
  ('C[C@](N)(Cc1ccc(O)c(O)c1)C(=O)O [METHYLDOPA]', 12.3);

Give PT for each of the items listed below.
1. CCN1CCCC1CNC(=O)c1cc(S(N)(=O)=O)ccc1OC (centres undefined) [SULPIRIDE]
2. C[C@]12CCC(=O)C=C1CC[C@@H]1[C@@H]2CC[C@@]2(C)[C@H]1CC[C@]2(C)O [METHYLTESTOSTERONE]
3. CCSCC[C@H](N)C(=O)O [ETHIONINE]
4. CC(=O)Oc1cc(C(C)C)c(OCCN(C)C)cc1C [MOXISYLYTE]
5. CC(C)(S)[C@@H](N)C(=O)O [PENICILLAMINE]
6. CCc1oc2ccccc2c1C(=O)c1cc(I)c(O)c(I)c1 [BENZIODARONE]
7. CCC(C)(C)C(=O)O[C@H]1C[C@@H](C)C=C2C=C[C@H](C)[C@H](CC[C@@H]3C[C@@H](O)CC(=O)O3)[C@H]21 [SIMVASTATIN]

14.1
13.2
12.5
16.1
14.4
11.9
11

Entry Nc1nc(N)c2nc(-c3ccccc3)c(N)nc2n1 has what PT?
14.2
